Hey, just so you know, these numbers are from patent US5830868A.

Biological target: rat brain farnesyl protein transferase (PFT) (Rattus norvegicus, UniProt Q02293+Q04631)
Construct: 40-fold purified rat brain farnesyl protein transferase; from tissue; host or cells: rat brain
Test: PFT inhibitory activity assay (radiolabeled farnesyl pyrophosphate, biotinyl peptide, streptavidin beads)
Type: biochemical
Details: 40-fold purified rat brain enzyme; 0.12 μM [3H]FPP, 0.1 μM biotinyl-Ahe-Tyr-Lys-Cys-Val-Ile-Met; 37° C., 30 minutes; read-out: IC50 (μM) against PFT
Square brackets hold non-standard residues; d marks the D form. Peptide text beside a SMILES is read from it. * marks the point of attachment. His(τ-Me) = Cn1cnc(C[C@H](N)C(=O)O)c1; Cbz = O=C(OCc1ccccc1)*; Bn = c1ccc(C*)cc1
MEASURED_QUANTITY: IC50 (µM)
Record the value in µM, omitting the unit from your answer.

Reported IC50 for CC(C)NC(=O)N[C@H](Cc1c[nH]cn1)C(=O)N[C@@H](Cc1ccc(OCc2ccccc2)cc1)C(=O)NCCCCc1ccccc1 : what is it? 3

Reported IC50 for O=C(N[C@@H](Cc1c[nH]cn1)C(=O)N[C@@H](Cc1ccc(OCc2ccccc2)cc1)C(=O)NCCOCc1ccccc1)OCc1ccccc1 : what is it? 0.31

Reported IC50 for CC(C)NC(=O)NC(Cc1cnc[nH]1)C(=O)NC(Cc1ccc(OCc2ccccc2)cc1)C(=O)NCc1ccccc1 (stereo not drawn) : what is it? 0.75

Reported IC50 for COC(=O)[C@H](COCc1ccccc1)NC(=O)C(C)(Cc1ccc(OCc2ccccc2)cc1)NC(=O)[C@H](Cc1c[nH]cn1)NC(=O)OCc1ccccc1 (mixture of isomers) : what is it? 0.1

Reported IC50 for O=C(N[C@H](Cc1c[nH]cn1)C(=O)N[C@@H](Cc1ccc(OCc2ccccc2)cc1)C(=O)NCCCOc1ccccc1)OCc1ccccc1 : what is it? 0.64

Reported IC50 for COC(=O)[C@H](COCc1ccccc1)NC(=O)[C@H](Cc1ccc(OCc2ccccc2)cc1)NC(=O)[C@H](Cc1cn(C)cn1)NC(=O)OCc1ccccc1 [Example 13] (Cbz-[His(τ-Me)]-Tyr(Bn)-Ser(Bn)-OMe) : what is it? 0.083

Reported IC50 for O=C(Nc1ccc(Oc2ccccc2)cc1)NC(Cc1c[nH]cn1)C(=O)NC(Cc1ccc(OCc2ccccc2)cc1)C(=O)NCCc1ccccc1 (stereo not drawn) : what is it? 1

Reported IC50 for O=C(N[C@H](Cc1cnc[nH]1)C(=O)N[C@@H](Cc1ccc(OCc2ccccc2)cc1)C(=O)NCCc1ccccc1)N[C@@H]1C[C@H]1c1ccccc1 : what is it? 0.76

Reported IC50 for O=C(Nc1cccc2ccccc12)N[C@H](Cc1c[nH]cn1)C(=O)N[C@@H](Cc1ccc(OCc2ccccc2)cc1)C(=O)NCCOCc1ccccc1 : what is it? 1.1

Reported IC50 for O=C(Nc1cccc2ccccc12)N[C@H](Cc1c[nH]cn1)C(=O)N[C@@H](Cc1ccc(OCc2ccccc2)cc1)C(=O)NCc1ccccc1 : what is it? 1.4

Reported IC50 for COC(=O)[C@H](COCc1ccccc1)NC(=O)[C@H](Cc1ccc(OCc2ccccc2)cc1)NC(=O)[C@@H](Cc1c[nH]cn1)NC(=O)OCc1ccccc1 [Example 8] (Cbz-[dH]-Tyr(Bn)-Ser(Bn)-OMe) : what is it? 0.074

Reported IC50 for CCOc1ccc(NC(=O)N[C@H](Cc2c[nH]cn2)C(=O)N[C@@H](Cc2ccc(OCc3ccccc3)cc2)C(=O)NCCOCc2ccccc2)cc1 : what is it? 7.2
